Assay: Three-day MTT cell growth inhibition assay, 1542NPTX
Assay type: cell-based, human
Details: human, 1542NPTX cells

| compound | viability at 3 days, 50 µM [%] |
| --- | --- |
| O=C1c2ccccc2OCC1c1ccc(F)cc1 (racemic) [KBU2046, (±)-3(4-fluorophenyl)chroman-4-one] | 107 |
| O=c1c(-c2ccc(O)cc2)coc2cc(O)cc(O)c12 [Genistein, 4′,5,7-trihydroxyisoflavone, reference compound] | 80.5 |

---

Here the recorded viability at 3 days, 50 µM is given for each entry.
Test: Three-day MTT cell growth inhibition assay, 1542CPTX
Assay type: cell-based, human
Conditions: human, 1542CPTX cells
measured_parameter: viability at 3 days, 50 µM (%)

| compound | readout_unit | result_value |
| --- | --- | --- |
| O=c1c(-c2ccc(O)cc2)coc2cc(O)cc(O)c12 [Genistein, 4′,5,7-trihydroxyisoflavone, reference compound] | % | 77.4 |
| O=C1c2ccccc2OCC1c1ccc(F)cc1 (racemic) [KBU2046, (±)-3(4-fluorophenyl)chroman-4-one] | % | 104 |
